Each entry below carries its recorded melting point.
measured-parameter: melting point

> print(dat)
                                    compound  measured.parameter       reported
 1  CCc1n[nH]c(C(N)=O)c1NC(=O)c1cc(S(C)(=O)=O)ccc1OCc1ccccn1       melting point  134 to 138 °C
 2  Cc1cn(C(C)C(=O)O)nc1-c1ccccc1 (configuration not stated)       melting point  151 to 162 °C
 3               NC(=O)c1cn2c(ccc3ccccc32)n1       melting point  270 to 271 °C
 4            CCOC(=O)C(=O)N(CCO)N=Cc1ccccc1       melting point    96 to 98 °C
 5  O=C(CCNC1CC1)Nc1cc(-c2nnc(SCc3cccc(F)c3)o2)ccn1       melting point  102 to 103 °C
 6         CC(=O)CN1CCc2c(c(=O)oc3ccccc23)C1       melting point  128 to 130 °C
 7          Cc1ccccc1CNc1cc(Br)cc2c1nc(C)n2C       melting point  128 to 129 °C
 8  CN(C)CCn1c(=O)c2c3oc4ccccc4oc3c3[nH]c4cc(O)ccc4c3c2c1=O       melting point       > 360 °C
 9  CCCn1c(COCC)nc2c(N)nc3ccc(OCc4ccccc4)cc3c21       melting point  152 to 154 °C
10               Cc1cc2c(C(C)(C)C)c(O)ccc2o1       melting point        49.9 °C
11  COC(=O)[C@@H]1CCCN1C(=O)Nc1cc(Cl)cc(Cl)c1       melting point  110 to 112 °C
12         CCn1c(=O)ccc2cnc(Nc3ccccc3OC)nc21       melting point  126 to 128 °C

* * *

melting point values, listed per item
measured-parameter: melting point

> print(dat)
                         structure.notation  measured.parameter       reported
1            Cc1cc2[nH]c(=O)c(=O)[nH]c2cc1C       melting point       > 250 °C
2  CS(=O)(=O)c1ccc(C(=O)N[C@H]2CC[C@H](CCN3CCC(c4cccc5c4CCO5)CC3)CC2)s1       melting point         255 °C
3  COc1ccc2c(c1)[C@](C)(NC(=O)c1cc3cccc4c3n1CC4)C(=O)N2c1ccc(F)cc1       melting point  277 to 278 °C
4  C=CCN(CC=C)Cc1noc(-c2ncn3c2[C@@H]2CCN2C(=O)c2ccccc2-3)n1       melting point  147 to 150 °C

* * *

measured-parameter: melting point

> print(dat)
                                    compound       reported
 1  CCc1cc(-c2ccc(Cl)cc2)nc2c(C(=O)Nc3cccc(S(=O)(=O)NC(C)(C)CO)c3)cnn12  239 to 240 °C
 2  O=C1CCC(c2ccc(CCCCN3CCN(c4ccc(F)cc4)CC3)cc2)N1 (stereo unspecified)  136 to 137 °C
 3  NC(=O)C(Cc1ccccc1N1CCCCC1)c1ccc(C(=O)O)cc1 (stereo unspecified)  175 to 177 °C
 4   COC(=O)c1cc(N(C)C)c(C(C)(C)C)c(N(C)C)c1    80 to 82 °C
 5  COc1ccc(C(=O)Nc2ccccc2)cc1NCc1cccc(F)c1F  134 to 135 °C
 6  CC(C)(CF)C(O)(COc1ccc(F)cc1)Cn1cncn1 (stereo unspecified)    97 to 99 °C
 7  CSC1C(=O)Nc2c(OCc3ccccc3)cccc21 (stereo unspecified)  127 to 129 °C
 8  C=CCN1CCC(O)(c2cc(F)cc(F)c2)C1 (single isomer, unassigned; (-))  102 to 103 °C
 9           Cc1ccccc1Nc1nc(Cl)nc2c(C)cccc12  125 to 126 °C
10  CNC(=O)c1cccc(CN2CCN(c3nc(C)c(-c4cc(C)n[nH]4)s3)C2=O)c1  259 to 261 °C
11  CN(C)CCNc1ccc(O)c2c1C(=O)c1c(Cl)ccc(Cl)c1C2=O  125 to 130 °C

* * *

Entries annotated with measured melting point
measured-parameter: melting point

> print(dat)
                         structure.notation  measured.parameter       reported
1  CN(O)CC1=C(n2ccccc2=O)c2cc([N+](=O)[O-])ccc2OC1(C)C       melting point         159 °C
2          CCN(CC)CCNC(=O)c1ccc2cc(I)ccc2c1       melting point  105 to 107 °C
3           Cc1cccc(-c2ccccc2)c1NC(=N)N(C)C       melting point  144 to 145 °C

* * *

melting point values, listed per item
measured-parameter: melting point

> print(dat)
                                   molecule       reported
1  CCC(C(=O)N(C)C)n1ccc(-c2ccccc2Cl)n1 (centres undefined)  38.5 to 40 °C
2  CNC(=O)NC(=O)C(CC1CCCC1O)c1ccc(Cl)c(Cl)c1 (centres undefined)    62 to 64 °C
3  COc1ccc(C(=O)c2ccccc2)c([N+](=O)[O-])c1O  137 to 139 °C
4  C#CCN(Cc1cc2c(=O)n(C)c(CN3CCN(CC)CC3)nc2cc1Cl)c1ccc(C(=O)OC(C)(C)C)cc1  145 to 146 °C
5    CCOC(=O)c1cnc2c(-c3cccc(Cl)c3)cnn2c1Cl  140 to 141 °C
6  NC(=O)c1cc(C(=O)c2ccccc2)ccc1[N+](=O)[O-]         244 °C
7  Cc1cc(Oc2ccc(C(F)(F)F)cc2[N+](=O)[O-])nn1C(=O)NC(C)(C)C  104 to 106 °C
8  CS(=O)(=O)CCNc1nccc(Oc2ccc(NC(=O)c3cc(F)cc(N4CCCCC4)c3)c3ccccc23)n1  102 to 104 °C
9  O=C(NCCn1cc(C(=O)OCc2ccccc2)ccc1=O)c1cccnc1  154 to 155 °C

* * *

measured-parameter: melting point

> print(dat)
                         structure.notation       reported
1          O=C(O)c1ccc(NCCCCCCCc2ccccc2)cc1  123 to 126 °C
2  O=c1c2c(Cc3ccc(OC(F)(F)F)cc3)n[nH]c2c2cccnc2n1-c1cccc(OC(F)(F)F)c1  129 to 132 °C
3  CN1c2ccccc2N(C(=O)CNC(C)(C)C)c2ccccc2S1(=O)=O  143 to 145 °C
4  Cn1nc(C(F)(F)F)cc1Oc1cc(Cl)c(Cl)cc1[N+](=O)[O-]   99 to 100 °C

* * *

# maps each entry to its melting point
measured-parameter: melting point

> print(dat)
                         structure.notation       reported
1  Nc1cccc(NC(=O)c2ccc(CNC(=O)OCc3cccnc3)cc2)c1         156 °C
2  CC(C)(C)OC(=O)N1CC=C(c2ccc(NCc3ccccc3)cc2)CC1  120 to 121 °C
3                       CC(C)(C)c1ncc(O)cn1         132 °C

* * *

measured-parameter: melting point

> print(dat)
                                   molecule       reported
1                     CCOC(=O)c1cc(Cl)ccc1N          80 °C
2  CC(=O)NCCCC(=O)OC1c2ccccc2C(=O)N1c1ccc2ccc(Cl)nc2n1 (single isomer, unassigned; (+))         200 °C
3              C/C(=C(\C#N)C(N)=S)N1CCCOCC1  151 to 156 °C

* * *

Listing of entries alongside the reported melting point.
measured-parameter: melting point

> print(dat)
                                    compound  measured.parameter       reported
 1  O=C(Nc1ccc(OCCN2CCOCC2)c2ccccc12)c1cc(N2CCOCC2)ncn1       melting point    50 to 51 °C
 2     Cc1ccc(S(=O)(=O)C(C)(C)C(=O)C(C)C)cc1       melting point    76 to 79 °C
 3                 CS(=O)(=O)c1ccc(C#CCF)cc1       melting point    97 to 99 °C
 4      CCc1nnc2ccc(-c3ccc(C(F)(F)F)cc3)nn12       melting point  194 to 196 °C
 5  Cc1cccc(C)c1NC(=O)c1ccc(CN2C(=O)C3(COc4cc5c(cc43)CCO5)c3ccccc32)cc1 (configuration not stated)       melting point       > 250 °C
 6  O=C1CCC(n2cnc(-c3ccc(F)cc3)c2-c2ccnc(OCCO)n2)CC1       melting point  203 to 205 °C
 7  CC(=O)NS(=O)(=O)c1cc(C(=O)O)cc(N)c1Oc1ccccc1       melting point  290 to 293 °C
 8  CCN(CCCN1C(=O)c2cc(OC)ccc2C(C)(C)C1=O)CCCN1C(=O)c2cc(OC)ccc2C(C)(C)C1=O       melting point  141 to 143 °C
 9           Cc1cc2[nH]c(=O)c(=O)[nH]c2cc1Cl       melting point       > 330 °C
10  COc1cc(Oc2ccc(C(=O)N(C3CCCCC3)C3CCCC3)cc2)cc(OC)c1OC       melting point         166 °C
11       CCOC(=O)c1cc2cc(-c3ccc(N)cc3)ccc2o1       melting point    95 to 97 °C
12  CCC12CCC(=O)C=C1CCC2=O (single isomer, unassigned; (+))       melting point  56 to 58.5 °C
13                        CCOC(=O)c1ccccc1OC       melting point    75 to 76 °C
14        O=C(NN1CCN(C(=O)Cl)C1=O)OCc1ccccc1       melting point  102 to 105 °C
15  CC(C(=O)O)c1ccc2[nH]ncc2c1 (configuration not stated)       melting point    91 to 96 °C
16            N#Cc1ccc(-c2ccc(-c3cccs3)s2)s1       melting point  122 to 125 °C
17  O[C@H](CN[C@H]1CCCc2ccccc21)COc1cccc2ccccc12       melting point  107 to 109 °C
